# System: 2H4 cells
# TEST DETAILS: Evaluation of combination of IL-2 Luc LTT and IL-2 Luc assay
# Format: cell-based
# Set-up: key: Positive (Pos): If the result is either LCT in the IL-2 Luc LTT or S in the IL-2 Luc assay, or both, the chemical substance is determined to be an immunosuppressive substance.; Negative (Neg): In the case other than the above, the chemical substance is determined to be a non-immunosuppressive substance
# CONDITIONS USED: LCT in IL-2 Luc LTT or S in IL-2 Luc assay = Pos
Structures can show the parent of a compound that is named as a salt.
ASSAY READOUT: Evaluation of Combination

COMPOUND	REPORTED MEASUREMENT
COc1c(C)c2c(c(O)c1C/C=C(\C)CCC(=O)O)C(=O)OC2	Pos
CC(=O)O[C@H]1C(=O)[C@@]2(C)[C@H]([C@H](OC(=O)c3ccccc3)[C@]3(O)C[C@H](OC(=O)[C@H](O)[C@@H](NC(=O)c4ccccc4)c4ccccc4)C(C)=C1C3(C)C)[C@]1(OC(C)=O)CO[C@@H]1C[C@@H]2O	Pos
COc1cccc2c1C(=O)c1c(O)c3c(c(O)c1C2=O)C[C@@](O)(C(=O)CO)C[C@@H]3O[C@H]1C[C@H](N)[C@H](O)[C@H](C)O1 [Doxorubicin hydrochloride]	Pos
CN(Cc1cnc2nc(N)nc(N)c2n1)c1ccc(C(=O)N[C@@H](CCC(=O)O)C(=O)O)cc1 [Methotrexate (MTX), Methotrexate]	Neg
CC[C@H](C)C(=O)O[C@H]1C[C@H](O)C=C2C=C[C@H](C)[C@H](CC[C@@H](O)C[C@@H](O)CC(=O)O)[C@H]21	Neg
CS(=O)(=O)Nc1cc2occ(NC=O)c(=O)c2cc1Oc1ccccc1	Pos

The reported measurements were obtained from patent US20240060146A1.
